Biological target: T1, biotinylated Fc-fused monkey CD137 (monkey, biotin on the AviTag)
T1 construct: also called cyCD137-Fc-BAP
T1 sequence (chain, as listed by the source limits assumed): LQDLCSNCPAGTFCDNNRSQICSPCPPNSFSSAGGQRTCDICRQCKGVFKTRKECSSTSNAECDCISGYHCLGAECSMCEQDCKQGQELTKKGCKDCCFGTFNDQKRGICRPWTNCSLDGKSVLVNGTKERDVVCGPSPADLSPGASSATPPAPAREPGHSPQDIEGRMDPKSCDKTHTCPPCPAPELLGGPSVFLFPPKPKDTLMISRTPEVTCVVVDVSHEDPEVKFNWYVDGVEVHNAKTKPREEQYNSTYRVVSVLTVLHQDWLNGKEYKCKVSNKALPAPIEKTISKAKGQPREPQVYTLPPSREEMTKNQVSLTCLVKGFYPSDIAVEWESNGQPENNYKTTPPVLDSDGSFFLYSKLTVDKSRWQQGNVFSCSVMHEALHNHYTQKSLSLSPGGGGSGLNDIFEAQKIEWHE
Assay: ELISA, 1 mM ADP, 0.039 ug/mL
Design: reference not given here
Description: The obtained antibodies were evaluated for binding to monkey CD137 by ELISA. The cyCD137-Fc-BAP prepared in Reference Example 1 was immobilized on Streptawell microtiter plates. […] Color development was measured by absorbance at 600 nm. Samples with a concentration-dependent increase in the absorbance ratio can be said to be bound to monkey CD137.
REPORTED_METRIC: absorbance ratio
In your answer, state the number alone without any accompanying words.

The binder dBBAT112-P253 (antibody, human IgG1, lambda, V domains shown) VH: EVQLVESGGDLVKPGGGLRLSCAASGFTFSTYTMNWVRQAPGKGLEWVSSISSRSNYKFYADSVKGRFTISRDNAKNSLYLQMNSLRAEDTAVYYCARFGVKNNMNWVFDYWGQGTLVTVSS VL: QSALTQPPSASGSPGQTVTISCTGTSSDVGFYNYVSWYQQHPGKAPKLMIYEVSKRPSGVPDRFSGSKSGNTASLTVSGLQAEDEADYFCSSYEYIESVLFGGGTKLTVLG showed absorbance ratio equal to 0.6

In plain terms, dBBAT134-P253 (antibody, human IgG1, lambda, V domains shown) VH: EVQLVESGGDLVKPGGGLRLSCAASGFTFSSYTMNWVRQAPGKGLEWVSSISSRSNYADYADSVKGRFTISRDNAKNSLYLQMNSLRAEDTAVYYCARYGAKNEMNWVFDYWGQGTLVTVSS VL: QSALTQPPSASGSPGQTVTISCTGTSTDVGFYNYVSWYQQHPGKAPKLMIYEVSKRPSGVPDRFSGSKSGNTASLTVSGLQAEDEADYFCSSYTYDQQLMFGGGTKLTVLG has a documented absorbance ratio of 1.2

// dBBAT021-P253 (antibody, human IgG1, lambda, V domains shown) VH: EVQLVESGGDLVKPGGGLRLSCAASGFTFSSYTMNWVRQAPGKGLEWVSSISSRSNYRDYADSVKGRFTISRDNAKNSLYLQMNSLRAEDTAVYYCARYGGKNILNWVFDYWGQGTLVTVSS VL: QSALTQPPSASGSPGQTVTISCTGTSSDVGFYNYVSWYQQHPGKAPKLMIYEVSKRPSGVPDRFSGSKSGNTASLTVSGLQAEDEADYFCSSYSSDTHVGFGGGTKLTVLG : absorbance ratio value = 1.2

// recorded absorbance ratio for dBBAT037-P253 (antibody, human IgG1, lambda, V domains shown) VH: EVQLVESGGDLVKPGGGLRLSCAASGFTFSGYTMNWVRQAPGKGLEWVSSISSRSNYIDYADSVKGRFTISRDNAKNSLYLQMNSLRAEDTAVYYCARFGLKNSLNWVFDYWGQGTLVTVSS VL: QSALTQPPSASGSPGQTVTISCTGTSTDVGFYNYVSWYQQHPGKAPKLMIYETSKRPSGVPDRFSGSKSGNTASLTVSGLQAEDEADYFCSSYSGASILLFGGGTKLTVLG : 1.3
